- TEST SYSTEM: Neuronal acetylcholine receptor; alpha3/beta4 (Homo sapiens, UniProt P30926+P32297)
- Sequence (P30926 whole entry): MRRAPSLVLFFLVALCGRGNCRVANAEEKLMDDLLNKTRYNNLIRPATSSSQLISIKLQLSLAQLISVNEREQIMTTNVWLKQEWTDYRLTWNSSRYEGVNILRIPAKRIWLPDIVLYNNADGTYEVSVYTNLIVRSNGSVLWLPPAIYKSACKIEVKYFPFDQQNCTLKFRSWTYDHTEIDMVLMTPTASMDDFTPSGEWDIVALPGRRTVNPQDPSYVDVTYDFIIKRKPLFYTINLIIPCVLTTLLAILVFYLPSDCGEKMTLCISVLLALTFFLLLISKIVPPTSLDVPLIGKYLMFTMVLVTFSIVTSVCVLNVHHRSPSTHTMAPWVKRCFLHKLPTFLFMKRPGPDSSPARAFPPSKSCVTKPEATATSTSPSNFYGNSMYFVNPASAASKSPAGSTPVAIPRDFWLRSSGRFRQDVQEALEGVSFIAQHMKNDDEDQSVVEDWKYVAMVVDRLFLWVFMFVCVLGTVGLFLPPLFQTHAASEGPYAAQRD
- Sequence (P32297 whole entry): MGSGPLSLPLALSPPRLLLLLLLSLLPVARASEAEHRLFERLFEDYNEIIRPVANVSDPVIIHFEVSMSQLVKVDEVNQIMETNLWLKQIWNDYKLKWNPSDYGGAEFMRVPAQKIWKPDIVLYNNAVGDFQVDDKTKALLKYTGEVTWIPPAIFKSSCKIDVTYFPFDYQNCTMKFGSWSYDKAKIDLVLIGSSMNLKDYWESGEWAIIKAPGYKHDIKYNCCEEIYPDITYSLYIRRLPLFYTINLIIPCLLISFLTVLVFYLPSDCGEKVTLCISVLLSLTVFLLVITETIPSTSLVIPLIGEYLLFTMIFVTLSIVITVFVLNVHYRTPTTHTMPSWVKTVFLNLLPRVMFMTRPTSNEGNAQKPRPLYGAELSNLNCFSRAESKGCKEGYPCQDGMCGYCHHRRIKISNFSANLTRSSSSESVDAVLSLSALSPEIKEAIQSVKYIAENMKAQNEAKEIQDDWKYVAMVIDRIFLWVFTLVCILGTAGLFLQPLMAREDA
- ASSAY METHOD TEXT: Agonist activity at human alpha-3-beta-4 ACHR expressed in HEK293 cells assessed as change in intracellular calcium concentration by FLIPR
MEASUREMENT TYPE: pEC50
Scale note: pEC50 = -log10(concentration in M).

Query: What pEC50 value was documented for this compound, Cc1cc(N2C[C@H]3CCNC[C@H]32)cnc1Cl ?
Response: 6.53

Query: What pEC50 value was documented for this compound, NC(=O)c1cc(N2C[C@H]3CCNC[C@H]32)cnc1Br ?
Response: 5.13

Query: What pEC50 value was documented for this compound, N#Cc1cncc(N2C[C@@H]3CCNC[C@@H]32)c1 ?
Response: 5.59

Query: What pEC50 value was documented for this compound, O=[N+]([O-])c1ccc(N2CC[C@H]3CN[C@H]3C2)cn1 ?
Response: 6.41

Query: What pEC50 value was documented for this compound, COc1cc(N2CC[C@H]3CN[C@H]3C2)cnc1Br ?
Response: 8.10

Query: What pEC50 value was documented for this compound, c1cncc(N2CC[C@@H]3CN[C@@H]3C2)c1 ?
Response: 6.59

Further cases:
Query: What pEC50 value was documented for this compound, COc1cncc(N2C[C@H]3CCNC[C@H]32)c1 ?
Response: 5.36

Query: What pEC50 value was documented for this compound, Cc1cc(N2C[C@@H]3CCNC[C@@H]32)cnc1Cl ?
Response: 5.72

Query: What pEC50 value was documented for this compound, N#Cc1cncc(N2CC[C@@H]3CN[C@@H]3C2)c1 ?
Response: 6.31

Query: What pEC50 value was documented for this compound, Clc1ccc(N2CC[C@@H]3CN[C@@H]3C2)cn1 ?
Response: 7.60

Query: What pEC50 value was documented for this compound, N#Cc1cc(N2C[C@H]3CCNC[C@H]32)cnc1Br ?
Response: 6.62

Query: What pEC50 value was documented for this compound, N#Cc1cncc(N2C[C@H]3CCNC[C@H]32)c1 ?
Response: 5.25

Query: What pEC50 value was documented for this compound, Brc1cc(N2CC[C@@H]3CN[C@@H]3C2)cnc1Br ?
Response: 6.96

Query: What pEC50 value was documented for this compound, CCOc1cncc(N2CC[C@@H]3CN[C@@H]3C2)c1 ?
Response: 5.55

Query: What pEC50 value was documented for this compound, Brc1cc(N2CC[C@H]3CN[C@H]3C2)cnc1Br ?
Response: 8.09

Query: What pEC50 value was documented for this compound, c1ncc(N2CC[C@H]3CN[C@H]3C2)cn1 ?
Response: 6.97

Query: What pEC50 value was documented for this compound, Cc1cc(N2CC[C@H]3CN[C@H]3C2)cnc1Cl ?
Response: 8.14

Query: What pEC50 value was documented for this compound, COc1cc(N2C[C@@H]3CCNC[C@@H]32)cnc1Br ?
Response: 5.53

Query: What pEC50 value was documented for this compound, c1cncc(N2C[C@H]3CCNC[C@H]32)c1 ?
Response: 5.81

Query: What pEC50 value was documented for this compound, N#Cc1cc(N2CC[C@H]3CN[C@H]3C2)cnc1Br ?
Response: 8.36

Query: What pEC50 value was documented for this compound, N#Cc1cncc(N2CC[C@H]3CN[C@H]3C2)c1 ?
Response: 6.00

Query: What pEC50 value was documented for this compound, c1cncc(N2C[C@@H]3CCNC[C@@H]32)c1 ?
Response: 5.77

Query: What pEC50 value was documented for this compound, c1cncc(N2CC[C@H]3CN[C@H]3C2)c1 ?
Response: 7.32

Query: What pEC50 value was documented for this compound, Clc1ccc(N2C[C@H]3CCNC[C@H]32)cn1 ?
Response: 5.82

Query: What pEC50 value was documented for this compound, c1ncc(N2CC[C@@H]3CN[C@@H]3C2)cn1 ?
Response: 5.99

Query: What pEC50 value was documented for this compound, COc1cncc(N2CC[C@@H]3CN[C@@H]3C2)c1 ?
Response: 5.35

Query: What pEC50 value was documented for this compound, Clc1cc(N2CC[C@@H]3CN[C@@H]3C2)cnc1Cl ?
Response: 6.96

Query: What pEC50 value was documented for this compound, Clc1cc(N2C[C@@H]3CCNC[C@@H]32)cnc1Cl ?
Response: 5.39

Query: What pEC50 value was documented for this compound, Cc1cncc(N2CC[C@@H]3CN[C@@H]3C2)c1 ?
Response: 5.85
